Origin of the recorded values: ChEMBL document CHEMBL1156172

Below, each of the compounds is paired with its reported MIC value.
# Tested on: Mycobacterium tuberculosis
# METHOD_SUMMARY: Antituberculosis activity against Mycobacterium tuberculosis H37Rv after 4 weeks by agar slant proportion method
# Type: functional
# MEASUREMENT_PARAMETERS: Mycobacterium tuberculosis, H37Rv, 672 h

* C/C(=N\NC(=S)Nc1ccc(Br)cc1)c1ccc([N+](=O)[O-])cc1 | 6.25 µg/mL

// returns reported MIC for input `C/C(=N\NC(=S)Nc1ccccc1F)c1ccc([N+](=O)[O-])cc1`
> 12.5 µg/mL

// returns reported MIC for input `C/C(=N\NC(=S)Nc1cc(C)ccn1)c1ccc(Br)cc1`
0.4 µg/mL

// returns reported MIC for input `C/C(=N\NC(=S)Nc1cccc(C)c1)c1ccc([N+](=O)[O-])cc1`
> 12.5 µg/mL

// returns reported MIC for input `C/C(=N\NC(=S)NN1CCN(c2ccccc2Cl)CC1)c1ccc(Br)cc1`
3.12 µg/mL

// returns reported MIC for input `C/C(=N\NC(=S)Nc1ccncc1)c1ccc(Br)cc1`
> 12.5 µg/mL

====

# Test system: Mycobacterium tuberculosis
# METHOD_SUMMARY: Antituberculosis activity against Mycobacterium tuberculosis H37Rv after 4 weeks by agar slant proportion method
# Type: functional
# MEASUREMENT_PARAMETERS: Mycobacterium tuberculosis, H37Rv, 672 h
RECORDED_METRIC: MIC (µg/mL)
Respond with the bare value in µg/mL.

// returns reported MIC for input `CC(=O)C1(c2ccccc2)CCN(NC(=S)N/N=C(\C)c2ccc(Br)cc2)CC1`
0.8

// returns reported MIC for input `CC[C@@H](CO)NCCN[C@@H](CC)CO`
0.1

// returns reported MIC for input `C/C(=N\NC(=S)NNC(=O)c1cccnc1)c1ccc(Br)cc1`
6.25

// returns reported MIC for input `C/C(=N\NC(=S)Nc1cc(C)ccn1)c1ccc([N+](=O)[O-])cc1`
3.12

====

# Test system: Mycobacterium tuberculosis
# METHOD_SUMMARY: Antituberculosis activity against Mycobacterium tuberculosis H37Rv after 4 weeks by agar slant proportion method
# Assay type: functional
# MEASUREMENT_PARAMETERS: Mycobacterium tuberculosis, H37Rv, 672 h
Label key: label 1 means MIC under 0.8 µg/mL; label 0 means MIC of 0.8 µg/mL or more.

Use the examples below as a reference point.
* COc1ccc(NC(=S)N/N=C(\C)c2ccc([N+](=O)[O-])cc2)cc1 | label 0
* C/C(=N\NC(=S)Nc1cccc(Cl)c1Cl)c1ccc([N+](=O)[O-])cc1 | label 0
* C/C(=N\NC(=S)Nc1ccccc1F)c1ccc(Br)cc1 | label 0
* C/C(=N\NC(=S)Nc1ccccc1[N+](=O)[O-])c1ccc(Br)cc1 | label 1
* C/C(=N\NC(=S)NNc1ccc(C)cc1)c1ccc(Br)cc1 | label 0
* COc1ccc(NNC(=S)N/N=C(\C)c2ccc(Br)cc2)cc1 | label 0
* C/C(=N\NC(=S)Nc1cccc(Cl)c1Cl)c1ccc(Br)cc1 | label 1

Switching to the query record.
# TODO verify MIC < 0.8 µg/mL strictly for this compound: `NNC(=O)c1ccncc1`
label 1

====

# System: Mycobacterium tuberculosis
# METHOD_SUMMARY: Antituberculosis activity against Mycobacterium tuberculosis H37Rv after 4 weeks by agar slant proportion method
# Format: functional
# MEASUREMENT_PARAMETERS: Mycobacterium tuberculosis, H37Rv, 672 h
RECORDED_METRIC: MIC

Example entries begin here.
* C/C(=N\NC(=S)Nc1ccc(I)cc1)c1ccc([N+](=O)[O-])cc1 | > 12.5 µg/mL
* C/C(=N\NC(=S)NN)c1ccc(Br)cc1 | > 12.5 µg/mL

--- query ---
Hi! What's the reported MIC for `C/C(=N\NC(=S)Nc1ccncc1C)c1ccc(Br)cc1` on Mycobacterium tuberculosis?
> 12.5 µg/mL

====

# Tested on: Mycobacterium tuberculosis
# METHOD_SUMMARY: Antituberculosis activity against Mycobacterium tuberculosis H37Rv after 4 weeks by agar slant proportion method
# Type: functional
# MEASUREMENT_PARAMETERS: Mycobacterium tuberculosis, H37Rv, 672 h
Below, each of the molecules is paired with its reported MIC value.
Respond with the bare value in µg/mL.

* C/C(=N\NC(=S)Nc1ccc(Br)cc1)c1ccc(Br)cc1 | 0.8
* COc1ccc(NC(=S)N/N=C(\C)c2ccc(Br)cc2)cc1 | 0.8

// returns reported MIC for input `C/C(=N\NC(=S)Nc1ccc(I)cc1)c1ccc(Br)cc1`
0.8
